CC50 at 72 h values by entry
# TEST_SUMMARY: compound was tested for 50% toxic concentration by flow cytometry after propidium iodide staining after 3 days of drug treatment in CEM lymphoblast cells.
# APPLIED_CONDITIONS: human, read-out: TC50
PROPERTY: CC50 at 72 h (µM)

SMILES_STR: CCCCCCCCCCCCCCCCCCCCOC(=O)P(=O)(O)OC[C@H]1O[C@@H](n2cc(C)c(=O)[nH]c2=O)C[C@@H]1N=[N+]=[N-].N
MEASURED: 36
--
SMILES_STR: CCCCCCCCCCCCCCCCCCCCCCOC(=O)P(=O)(O)OC[C@H]1O[C@@H](n2cc(C)c(=O)[nH]c2=O)C[C@@H]1N=[N+]=[N-].N
MEASURED: 93
--
SMILES_STR: O=C(O)P(=O)(O)O
MEASURED: 800
--
SMILES_STR: CCCCCCCCCCCCCCCCCCOC(=O)P(=O)(O)OC[C@H]1O[C@@H](n2cc(C)c(=O)[nH]c2=O)C[C@@H]1N=[N+]=[N-].N
MEASURED: 28

====

# TEST_SUMMARY: selectivity index expressed as TC50/EC50; EC50 values are calculated from […] cells infected with HIV-1LAI
# Type: functional

SMILES_STR: O=C(O)P(=O)(O)O
RELATION: >
Selectivity index: 7.5
//
SMILES_STR: CCCCCCCCCCCCCCCCCCOC(=O)P(=O)(O)OC[C@H]1O[C@@H](n2cc(C)c(=O)[nH]c2=O)C[C@@H]1N=[N+]=[N-].N
RELATION: =
Selectivity index: 100
//
SMILES_STR: CCCCCCCCCCCCCCCCCCCCOC(=O)P(=O)(O)OC[C@H]1O[C@@H](n2cc(C)c(=O)[nH]c2=O)C[C@@H]1N=[N+]=[N-].N
RELATION: =
Selectivity index: 228
//
SMILES_STR: CCCCCCCCCCCCCCCCCCCCCCOC(=O)P(=O)(O)OC[C@H]1O[C@@H](n2cc(C)c(=O)[nH]c2=O)C[C@@H]1N=[N+]=[N-].N
RELATION: =
Selectivity index: 1000
